measurement.target: GST-Ap-NF-kB RHD (Exaiptasia pallida (Aiptasia), UniProt A0A913YAJ5 2-422)
Sequence: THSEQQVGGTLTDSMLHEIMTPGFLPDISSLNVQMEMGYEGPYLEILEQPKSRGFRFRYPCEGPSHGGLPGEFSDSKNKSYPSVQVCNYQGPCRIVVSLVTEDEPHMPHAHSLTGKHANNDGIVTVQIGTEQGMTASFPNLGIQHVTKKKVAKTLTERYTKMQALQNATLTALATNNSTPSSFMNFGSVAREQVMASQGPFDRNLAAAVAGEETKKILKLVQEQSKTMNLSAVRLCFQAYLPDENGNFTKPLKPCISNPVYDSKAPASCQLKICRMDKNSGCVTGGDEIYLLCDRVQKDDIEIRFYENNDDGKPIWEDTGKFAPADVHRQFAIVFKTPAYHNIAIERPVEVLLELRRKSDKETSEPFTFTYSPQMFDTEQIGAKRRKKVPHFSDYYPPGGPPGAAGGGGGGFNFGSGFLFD
test.method.notes: protein-binding microarray (PBM); PBM: ~300 nM protein, 6 mM HEPES pH 7.8, 80 mM KCl, 0.5 mM EDTA, 0.5 mM EGTA, 6% glycerol, 35 ng/ul poly-dIdC, 1% milk, 1 h, room temperature; Ap Aiptasia and Nv Nematostella (sea anemones) / Co Capsaspora / Aq Amphimedon (sponge) / Dm Drosophila / Hu human; RHD is the Rel homology domain; high values mean tight binding
measurement.conditions: dsDNA, one strand shown
Give measured binding signal for each item. Keep answers brief.
Answers are plain numbers, in z-score.

Reference set, count: 8
CCGATTAACATCAGGGAAAACGATGATGTTAATCGGGTCTTGATTCGCTTGACGCTGCTG    2.75
CCGATTAACATCAGGGGGAAGAATGATGTTAATCGGGTCTTGATTCGCTTGACGCTGCTG    5.11
CCGATTAACATCACAACTCCCCCTGATGTTAATCGGGTCTTGATTCGCTTGACGCTGCTG    5.84
CCGATTAACATCAAACCCCCCCTTGATGTTAATCGGGTCTTGATTCGCTTGACGCTGCTG    6.49
CCGATTAACATCAAACTCTCCCCTGATGTTAATCGGGTCTTGATTCGCTTGACGCTGCTG    5.13
CCGATTAACATCACTCCCCCCCCTGATGTTAATCGGGTCTTGATTCGCTTGACGCTGCTG    5.73
CCGATTAACATCAAATTCCCGCCTGATGTTAATCGGGTCTTGATTCGCTTGACGCTGCTG    3.27
CCGATTAACATCACTTTTCCCCCTGATGTTAATCGGGTCTTGATTCGCTTGACGCTGCTG    6.53

The following sequences each have a reported value; give each one's binding signal.
1. CCGATTAACATCAGGGGGTTTAATGATGTTAATCGGGTCTTGATTCGCTTGACGCTGCTG
2. CCGATTAACATCAGGGGATATTATGATGTTAATCGGGTCTTGATTCGCTTGACGCTGCTG
3. CCGATTAACATCAGCTCCCCCCCTGATGTTAATCGGGTCTTGATTCGCTTGACGCTGCTG
4. CCGATTAACATCAAAATCCCAGTTGATGTTAATCGGGTCTTGATTCGCTTGACGCTGCTG
5. CCGATTAACATCAACGTTTTCCCTGATGTTAATCGGGTCTTGATTCGCTTGACGCTGCTG
6. CCGATTAACATCACGTAAACCCCTGATGTTAATCGGGTCTTGATTCGCTTGACGCTGCTG

6.88
7.99
5.26
1.67
3.04
3.55

The following sequences each have a reported value; give each one's binding signal.
1. CCGATTAACATCAGGGGTAATTATGATGTTAATCGGGTCTTGATTCGCTTGACGCTGCTG
2. CCGATTAACATCAAAAGTCCCCTTGATGTTAATCGGGTCTTGATTCGCTTGACGCTGCTG
3. CCGATTAACATCAACCCCGTTTCTGATGTTAATCGGGTCTTGATTCGCTTGACGCTGCTG
4. CCGATTAACATCACGGAACTCCCTGATGTTAATCGGGTCTTGATTCGCTTGACGCTGCTG

3.8
8.69
1.51
3
